The values you see were collected from ChEMBL document CHEMBL1143306.

Assay: Bioavailability in rat at 3 mg/kg, iv and 10 mg/kg, po
Assay type: ADME, organism-based
Conditions: in vivo
TEST READOUT: bioavailability (%)

{"MOLECULAR STRING": "CCOc1cc2ncc(C(N)=O)c(Nc3ccc(Cl)c(Cl)c3)c2cc1N1CCN(C)CC1", "TEST READOUT": "bioavailability", "EXPERIMENTAL VALUE": 42}
{"MOLECULAR STRING": "CCOc1cc2ncc(C(N)=O)c(Nc3ccc(F)cc3F)c2cc1N1CCN(CC)CC1", "TEST READOUT": "bioavailability", "EXPERIMENTAL VALUE": 46}
{"MOLECULAR STRING": "CCOc1cc2ncc(C(N)=O)c(Nc3cccc(Cl)c3Cl)c2cc1N1CCCN(C)CC1", "TEST READOUT": "bioavailability", "EXPERIMENTAL VALUE": 100}
{"MOLECULAR STRING": "COc1cc2ncc(C(N)=O)c(Nc3ccc(F)cc3F)c2cc1OC", "TEST READOUT": "bioavailability", "EXPERIMENTAL VALUE": 100}
{"MOLECULAR STRING": "CCOc1cc2ncc(C(N)=O)c(Nc3cc(C)ccc3F)c2cc1N1CCN(C)CC1", "TEST READOUT": "bioavailability", "EXPERIMENTAL VALUE": 88}

(I) CCOc1cc2ncc(C(N)=O)c(Nc3ccc(F)cc3F)c2cc1N1CCN(C)CC1
(II) COCCOc1cc2ncc(C(N)=O)c(Nc3cc(C)ccc3F)c2cc1N1CCN(C)CC1
(III) CCOc1cc2ncc(C(N)=O)c(Nc3ccc(F)cc3F)c2cc1N1CCCN(C)CC1
Prompt: Order the items by recorded bioavailability; the first position goes to the largest value. // list labels; follow requested order
Response: I, II, III
(I: 100%, II: 45%, III: 16%)

----------
Experiment: Aqueous solubility of the compound
Format: physicochemical
Details: buffer
TEST READOUT: solubility (µM)

{"MOLECULAR STRING": "CCOc1cc2ncc(C(N)=O)c(Nc3cccc(Cl)c3Cl)c2cc1N1CCN(CCO)CC1", "EXPERIMENTAL VALUE": 67}

(1) CC(C)Oc1cc2ncc(C(N)=O)c(Nc3cccc(Cl)c3Cl)c2cc1N1CCN(C)CC1
(2) COCCOc1cc2ncc(C(N)=O)c(Nc3cccc(Cl)c3Cl)c2cc1N1CCN(C)CC1
(3) CN1CCN(c2cc3c(Nc4ccc(F)cc4F)c(C(N)=O)cnc3cc2F)CC1
(4) CC(C)Oc1cc2ncc(C(N)=O)c(Nc3cccc(Cl)c3F)c2cc1N1CCN(C)CC1
Prompt: Which order do these items take when sorted by rising solubility? List them. // list labels; follow requested order
Response: 3, 1, 2, 4

----------
Assay: Clearance in rat at 3 mg/kg, iv and 10 mg/kg, po
Format: ADME, organism-based
Details: in vivo
TEST READOUT: clearance (mL/min/kg)

Below, 3 molecules whose answers are already recorded.
{"MOLECULAR STRING": "CCOc1cc2ncc(C(N)=O)c(Nc3cccc(Cl)c3Cl)c2cc1N1CCN(C(=O)CO)CC1", "UNIT LABEL": "mL/min/kg", "clearance": 72}
{"MOLECULAR STRING": "CCOc1cc2ncc(C(N)=O)c(Nc3cc(C)ccc3F)c2cc1N1CCN(C)CC1", "UNIT LABEL": "mL/min/kg", "clearance": 28}
{"MOLECULAR STRING": "CCOc1cc2ncc(C(N)=O)c(Nc3ccc(F)cc3F)c2cc1N1CCCN(C)CC1", "UNIT LABEL": "mL/min/kg", "clearance": 32}

(A) COCCOc1cc2ncc(C(N)=O)c(Nc3cc(C)ccc3F)c2cc1N1CCN(C)CC1
(B) CN1CCN(c2cc3c(Nc4cccc(Cl)c4Cl)c(C(N)=O)cnc3cc2F)CC1
(C) CCOc1cc2ncc(C(N)=O)c(Nc3cccc(Cl)c3Cl)c2cc1N1CCN(CC)CC1
(D) CCOc1cc2ncc(C(N)=O)c(Nc3ccc(F)cc3F)c2cc1N1CCN(C)CC1
Prompt: Which order do these items take when sorted by rising clearance? List them. // list labels; follow requested order
Response: D, B, A, C

(I) COc1cc2ncc(C(N)=O)c(Nc3ccc(F)cc3F)c2cc1OC
(II) COc1cc2ncc(C(N)=O)c(Nc3cccc(Cl)c3Cl)c2cc1N1CCN(C)CC1
Prompt: // compare measured clearance between I and II ; output the lower one The response must carry the label of the picked entry.
Response: I

(I) COc1cc2ncc(C(N)=O)c(Nc3ccc(F)cc3F)c2cc1N1CCN(C)CC1
(II) CCOc1cc2ncc(C(N)=O)c(Nc3ccc(C)cc3F)c2cc1N1CCN(C)CC1
Prompt: # returns the entry with the larger clearance; inputs I and II The response must carry the label of the picked entry.
Response: I
(I: 15 mL/min/kg, II: 10 mL/min/kg)

(a) CCOc1cc2ncc(C(N)=O)c(Nc3ccc(F)cc3F)c2cc1N1CCN(C2CC2)CC1
(b) CCOc1cc2ncc(C(N)=O)c(Nc3ccc(Cl)c(Cl)c3)c2cc1N1CCN(C)CC1
Prompt: // compare measured clearance between a and b ; output the lower one The response must carry the label of the picked entry.
Response: a

(A) CCOc1cc2ncc(C(N)=O)c(Nc3cccc(Cl)c3Cl)c2cc1N1CCCN(C)CC1
(B) CC(C)Oc1cc2ncc(C(N)=O)c(Nc3ccc(F)cc3F)c2cc1N1CCN(C)CC1
Prompt: // compare measured clearance between A and B ; output the lower one The response must carry the label of the picked entry.
Response: B

(P) CCOc1cc2ncc(C(N)=O)c(Nc3cccc(Cl)c3Cl)c2cc1N1CCN(C(C)=O)CC1
(Q) CCOc1cc2ncc(C(N)=O)c(Nc3cccc(Cl)c3Cl)c2cc1N1CCN(C(C)C)CC1
(R) CCOc1cc2ncc(C(N)=O)c(Nc3ccc(F)cc3F)c2cc1N1CCOCC1
(S) CCOc1cc2ncc(C(N)=O)c(Nc3ccc(F)cc3F)c2cc1N1CCN(CC)CC1
Prompt: Which order do these items take when sorted by rising clearance? List them. // list labels; follow requested order
Response: S, R, P, Q
(S: 19 mL/min/kg, R: 36 mL/min/kg, P: 62 mL/min/kg, Q: 120 mL/min/kg)

(I) CCOc1cc2ncc(C(N)=O)c(Nc3cccc(Cl)c3Cl)c2cc1N1CCN(C)CC1
(II) COCCOc1cc2ncc(C(N)=O)c(Nc3ccc(C)cc3F)c2cc1N1CCN(C)CC1
(III) CN1CCN(c2ccc3ncc(C(N)=O)c(Nc4cccc(Cl)c4Cl)c3c2)CC1
(IV) CN1CCN(c2cc3c(Nc4ccc(F)cc4F)c(C(N)=O)cnc3cc2F)CC1
(V) COCCOc1cc2ncc(C(N)=O)c(Nc3cccc(Cl)c3Cl)c2cc1N1CCN(C)CC1
Prompt: Which order do these items take when sorted by rising clearance? List them. // list labels; follow requested order
Response: IV, II, I, III, V

(P) CCOc1cc2ncc(C(N)=O)c(Nc3ccc(F)c(Cl)c3)c2cc1N1CCN(C)CC1
(Q) CCOc1cc2ncc(C(N)=O)c(Nc3cccc(Cl)c3F)c2cc1N1CCN(C)CC1
Prompt: # returns the entry with the larger clearance; inputs P and Q The response must carry the label of the picked entry.
Response: P

----------
Assay: Aqueous solubility of the compound
Type: physicochemical
Settings: buffer
TEST READOUT: solubility (µM)

Below, 2 molecules whose answers are already recorded.
{"MOLECULAR STRING": "CCOc1cc2ncc(C(N)=O)c(Nc3cccc(Cl)c3Cl)c2cc1N1CCN(C(C)=O)CC1", "UNIT LABEL": "µM", "solubility": 2}
{"MOLECULAR STRING": "CCOc1cc2ncc(C(N)=O)c(Nc3ccc(Cl)c(Cl)c3)c2cc1N1CCN(C)CC1", "UNIT LABEL": "µM", "solubility": 3}

(I) CCOc1cc2ncc(C(N)=O)c(Nc3cccc(Cl)c3Cl)c2cc1N1CCCN(C(C)C)CC1
(II) CCOc1cc2ncc(C(N)=O)c(Nc3ccc(F)cc3F)c2cc1N1CCCN(C2CC2)CC1
Prompt: # returns the entry with the larger solubility; inputs I and II The response must carry the label of the picked entry.
Response: I
(I: 420 µM, II: 100 µM)

(A) CN1CCN(c2ccc3ncc(C(N)=O)c(Nc4ccc(Cl)cc4Cl)c3c2)CC1
(B) CN1CCN(c2ccc3ncc(C(N)=O)c(Nc4cccc(Cl)c4Cl)c3c2)CC1
Prompt: # returns the entry with the larger solubility; inputs A and B The response must carry the label of the picked entry.
Response: A
(A: 180 µM, B: 44 µM)

(I) CCOc1cc2ncc(C(N)=O)c(Nc3cccc(Cl)c3Cl)c2cc1N1CCN(C(C)C)CC1
(II) CN1CCN(c2cc3c(Nc4cccc(Cl)c4Cl)c(C(N)=O)cnc3cc2F)CC1
Prompt: # returns the entry with the larger solubility; inputs I and II The response must carry the label of the picked entry.
Response: I
(I: 250 µM, II: 8 µM)
